Give measured pIC50 for each item. Keep answers brief.
Tested on: ITK phosphorylation of its substrate, PLCγ1, at Y783
Test: ITK target modulation assay (phospho-Y783 PLCγ1 immunoblot in Jurkat T cells)
Format: cell-based
Conditions: Homo sapiens, Jurkat, 2 h, 2 hours compound, CD3/CD28 Dynabeads stimulation 100 sec, anti-phospho-Y783 PLCγ1 immunoblot, read-out: PLC-γ Inhibition IC50
pIC50: −log10 of the molar value.

// query I have this compound here, CNc1nccc(-c2c[nH]c3ncc(-c4cccc(NC(=O)/C=C/CN(C)C)c4)cc23)n1 , and I need its recorded pIC50.
// result 5.30 to 6.00

// query pIC50 value for entry C=CC(=O)Nc1cc(OC)cc(-c2cnc3[nH]cc(-c4ccnc(C#N)c4)c3c2)c1
// result < 5.30

// query So what's the measured pIC50 for this one? C=CC(=O)Nc1cccc(-c2cnc3[nH]cc(-c4cncc(C(N)=O)c4)c3c2)c1
// result < 5.30

// query Which pIC50 value is on record for Cc1cc(NC(=O)/C=C/CN(C)C)cc(-c2cnc3[nH]cc(-c4cccc(C#N)c4)c3c2)c1 ?
// result 5.30 to 6.00

// query Can you share its pIC50? I mean this compound: CN(C)C/C=C/C(=O)Nc1cncc(-c2cnc3[nH]cc(-c4ccnc(F)c4)c3c2)c1
// result ≥ 6.00

// query Using the record for CN(C)C/C=C/C(=O)Nc1cccc(-c2cnc3[nH]cc(-c4cncc(C#N)c4)c3c2)c1 , report its pIC50.
// result < 5.30

// query Fill blank: measured pIC50 of the compound C=CC(=O)Nc1cccc(-c2cnc3[nH]cc(-c4cccc(C#N)c4)c3c2C)c1 is ____.
// result ≥ 6.00

// query Which measured pIC50 value corresponds to C=CC(=O)Nc1cccc(-c2cnc3[nH]cc(-c4cncc(NC)c4)c3c2)c1 ?
// result ≥ 6.00

// query I would be grateful if you could share the reported pIC50 for COc1cc(-c2c[nH]c3ncc(-c4cc(NC(=O)/C=C/CN(C)C)cc(C(F)(F)F)c4)cc23)ccn1 .
// result ≥ 6.00

// query For C=CC(=O)Nc1cncc(-c2cnc3[nH]cc(-c4ccnc(C#N)c4)c3c2)c1 , what is its reported pIC50?
// result ≥ 6.00

// query Looking for the measured pIC50 of COc1cc(NC(=O)/C=C/CN(C)C)cc(-c2cnc3[nH]cc(-c4ccnc5[nH]ccc45)c3c2)c1 , can you help?
// result ≥ 6.00

// query // lookup pIC50 for C=CC(=O)Nc1cc(-c2cnc3[nH]cc(-c4ccnc(NC)n4)c3c2)cc(C(F)(F)F)c1
// result ≥ 6.00

// query May I ask what pIC50 has been recorded for C=CC(=O)Nc1cc(-c2cnc3[nH]cc(-c4cccc(C#N)c4)c3c2)cnc1OC1CCOC1 (stereo not shown) ?
// result 5.30 to 6.00

// query What does the data say about its pIC50? Entry: C=CC(=O)Nc1cc(OC)cc(-c2cnc3[nH]cc(-c4ccnc(OC)c4)c3c2)c1
// result ≥ 6.00

// query What measured pIC50 goes with C=CC(=O)Nc1cc(-c2cnc3[nH]cc(-c4ccncn4)c3c2)cc(C(F)(F)F)c1 ?
// result ≥ 6.00

// query pIC50 for C=CC(=O)Nc1cc(F)cc(-c2cnc3[nH]cc(-c4cccc(C#N)c4)c3c2)c1 ?
// result < 5.30
